# target_or_test_system: GST-tagged human ROCK2 catalytic domain 1-553 (Homo sapiens (Human))
# Sequence (O75116 1-553): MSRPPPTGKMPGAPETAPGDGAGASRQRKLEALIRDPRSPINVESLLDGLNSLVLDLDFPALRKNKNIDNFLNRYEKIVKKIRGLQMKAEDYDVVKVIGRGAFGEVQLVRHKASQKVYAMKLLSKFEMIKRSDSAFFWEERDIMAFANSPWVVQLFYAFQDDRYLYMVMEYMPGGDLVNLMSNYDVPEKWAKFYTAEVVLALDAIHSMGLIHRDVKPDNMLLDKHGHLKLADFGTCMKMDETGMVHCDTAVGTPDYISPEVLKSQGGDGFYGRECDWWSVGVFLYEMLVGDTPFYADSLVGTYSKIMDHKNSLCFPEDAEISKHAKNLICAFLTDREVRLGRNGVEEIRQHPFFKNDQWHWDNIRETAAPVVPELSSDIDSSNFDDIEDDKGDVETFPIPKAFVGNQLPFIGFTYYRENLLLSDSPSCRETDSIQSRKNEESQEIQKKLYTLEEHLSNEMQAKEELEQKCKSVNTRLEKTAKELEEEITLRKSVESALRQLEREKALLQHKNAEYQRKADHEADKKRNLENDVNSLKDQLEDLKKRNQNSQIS
# assay_name: Inhibition of Rho-associated protein kinase isoform 2 (LANCE Ultra ULight-CREBtide FRET kinase assay)
# Format: biochemical
# stated_conditions: 30 μM was the highest concentration analyzed
Form field: IC50 (one value per entry).

Below, 2 compounds whose answers are already recorded.
compound: Clc1c(Nc2nnc(-c3cccn4cc(C5CCNCC5)nc34)s2)ccc2[nH]ncc12 [Example 50H]
target_or_test_system: GST-tagged human ROCK2 catalytic domain 1-553 (Homo sapiens (Human))
IC50: < 1 µM
--
compound: O=C(Nc1cc(-c2nnc(Nc3ccc4[nH]ncc4c3Cl)s2)ccn1)N1CCOCC1 [Example 35A]
target_or_test_system: GST-tagged human ROCK2 catalytic domain 1-553 (Homo sapiens (Human))
IC50: < 1 µM

q: What value of measured IC50 is listed for Cn1cc(C(=O)Nc2cc(-c3nnc(Nc4ccc5[nH]ncc5c4)s3)ccn2)cn1 [Example 75I] ?
a: < 1 µM

q: Form field: reported IC50 of Cn1ccnc1CC(=O)Nc1cccc(-c2nnc(Nc3ccc4[nH]ncc4c3Cl)s2)c1 [Example 35BL]
a: < 1 µM
